Values were extracted from the supplement of paper PMC9170038.

Hi there, I'd appreciate the recorded apparent KD of K4 kissing-loop reporter for every entry that follows.
# Tested on: K4 kissing-loop RNA reporter;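 note: bound reporter read as fluorescence of individual clusters on recovered sequencing chips by microscopy, with normalized cluster intensities fitted with a binding model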
# protocol-notes: apparent KD of K4 kissing-loop reporter; higher = weaker reporter binding
# conditions-used: Eterna round: R107; input ligand: none
Give bare numbers, in nM.

>>> observed_measurement("CGGAGUGAUGUUCCUUUUAUUAAUUAUUUACGAGGACCGGUACGGCCGCCACUCGAUUUAGCUUUUAUUUAAUGCUUGGAUGUUU [JR_SSTryptoA_Sub004]")
140
>>> observed_measurement("GUAAUCUUGCUCGAGUGAUGUUCGAGCGAAGGAGCGCGAGAAAUCGCAGGUAGGUCGCGCUCGAAAUAUGAGCGAACAAUUAUUA [Arg A Ex t2b]")
220
>>> observed_measurement("UUUGGAUUGCGCUAAGAGUGCAAGCGCCAACGAGGACCGGUACGGCCGCCACUCGCGGAGGAGUCCAGUGAUGUUGGACGGCCCG [Orbile]")
601

Hey, can you go through the list below and give me apparent KD of K4 kissing-loop reporter for every item?
1. UAUUUAGUGACGGCCGCCACUAUUGUGAUUUAUUUGUUUGAGUGAUGUUUUGAUGUUUGAUUUUGUAGGACCGGGUUAUGUGUUA [awscmullin]
2. GCAGUGAUGUUGCUGAUGUACAGUGGGAUACGAGGACCGGUACGGCCGCCACUCGUACAGAACUUAUUAAUACAUCGAUAAGUGA [XIV]
3. UGACUGGACUGAAGGAGCGCUAAACUCCUAGUGAUGUUAGGAUAACGAGACAAAGUCUCGAGGCAGGUAGGUCGCAGUCUAGUCU
4. GGGCAAGUGAGUGAUGUUCGAUGAUGCUUAAAGGAUAUGUAGGAAUACAGAAGGUUAUAUUCCCUGACAUUAGAUCUUUACAGGG [theeternabot_exclusion_KL_FMN_A_44]
5. UGAUACCAGACGGCCGCCACUCUUGCAGUCAAAGACUGCUAAAAGGAAAUCGUCCAGUGAUGUUGGAGGACCGGGUCUGGUAUCU [TrypBX 15 #SwitchBubble #Palindromic #StaticStem]
6. AGUGAUGUUGUGUUAUGUUUGGGAAGUGAUCGAGGACCGGUACGGCCGCCACUCGAGUGAUGAGUGAGUGAUGUUUGUUUAGGGA [whbob_SS_Tryp_A_m9]
7. GCUAUGGUAGGAAGGAGCGCUUAUUUAUUAAUAAGAGUGAUGUUCGAUAGUAGAUAUUUAUAGCAGGUAGGUCGCCUACUAUAGC [Arginine B K4 12]

[938, 710, 131, 105, 1370, 962, 167]

Hey, can you go through the list below and give me apparent KD of K4 kissing-loop reporter for every item?
1. UUUUAAUGCAGUGAUGUUGCUAAUAAAACAGAGGAUAUGCAUGGAAGCAGAAGGCUGAAAUAUUAUACUUUAAUAAAUUAUAUUU [JR_SSFMNA_Sub010]
2. AGUCUGUAUGACAUAAGUGAUGUUUAUGUUCGAGGACCGGUACGGCCGCCACUCGCAAAUGUAUGAUUUCACGUUUGUGCAAGUA [KL-XTryp-A #analogue]

1: 78.8; 2: 207

* * *

Hi there, I'd appreciate the recorded apparent KD of MS2 coat protein for every entry that follows.
# Tested on: MS2 coat protein
# protocol-notes: apparent KD of MS2 coat protein; designed switch direction (-1 OFF switch, 1 ON switch): -1; higher = weaker reporter binding
# conditions-used: input ligand: none
Give bare numbers, in nM.

Some solved cases for reference:
>>> observed_measurement("UGAUCACAUGAGGAUCACCCAUGUCAGGAUAUCUACAUUGAAGCUGCGGCUUCAAUGUAGAGAAGGGACAUAAU [E1/3-B3] (Eterna round: R97, puzzle: Exclusion 1)")
355
>>> observed_measurement("AAAAAAAAAGUGAGGAUAUGCUCUACCUCGGUAGAGCAGAAGGCACAUGAGGAUCACCCAUGUGACUCCUCAUU [Omei Ex4B B25] (Eterna round: R97, puzzle: Brourd's mod of Exclusion 4)")
19.1
>>> observed_measurement("AUGUUGCGAGGAUAUAUAAGGAGGUUAAAAUUUAUUAUGGAACAUGAGGAUCACCCAUGUAGAAGGUGCAUAAC [JR_Ex2_Sub038] (Eterna round: R97, puzzle: Exclusion 2)")
55.7
>>> observed_measurement("UUUAGUCGUGACAUGGGUGACAUGAGGAUCACCCAUGUCACAAGCUUCUCGCUCGUCUUAUAAUUAACCCAUGUCAC [LRO Sensor-off var1-14 mod of Stov1-13-A1 by Brourd] (Eterna round: R97, puzzle: Sensor, turn-off variant 1)")
19.8

In the following, a different sequence is considered.
Field request: apparent KD of MS2 coat protein | item: UAUUAAUUAAUUAAUUAAUACAUGAGGAUCACCCAUGUAAUUUAAGAUCCUUAUACAAGCUUUGAUCUCGUAAUUAA [Stov1/4-A2] (Eterna round: R97, puzzle: Sensor, turn-off variant 1)
696

* * *

# Test system: MS2 coat protein
# protocol-notes: apparent KD of MS2 coat protein; designed switch direction (-1 OFF switch, 1 ON switch): -1; higher = weaker reporter binding
# conditions-used: input ligand: FMN 200 uM
The class of a record is decided solely by its measured apparent KD of MS2 coat protein; consult 1 (below 40 nM), 2 (40 nM to below 80 nM), 3 (80 nM or more)

Check out these entries, answers already filled in.
>>> class_name("GGUAUAUGAGGAUAUAGAUUCCUCGACAUGAGGAUCACCCAUGUAAGAUUGGGCCUAGAACUAGAAGGCGUGGCUU [Eternabot (L1) Solution 77] (Eterna round: R97, puzzle: Exclusion 5)")
2
>>> class_name("UAUAUAUAGUAAGGAUAUGUAUUUAUUUUAUAGACAGAAGGUACUGACAUGAGGAUCACCCAUGUUUUAGUGUGGGCAUGUAGA [JMF's solution 27] (Eterna round: R96, puzzle: Exclusion NG 1)")
3
>>> class_name("ACAUUGCGAGGAUAUACAUGAGGAUCACCCAUGUGGUAGUGGAUACGGUAGGGCUAGUGUAGAAGGUGUUAUGA [EX3 #15] (Eterna round: R97, puzzle: Exclusion 3)")
3
>>> class_name("ACGAUGACUGAAAAGUGUAAACUGACAUGAGGAUCACCCAUGUAGGAUAUGGCUACGAAAAGUAGUCAGAAGGGCAUGUCAUCA [Omei Exc(NG) 3 Av10] (Eterna round: R96, puzzle: Exclusion NG 3)")
1
>>> class_name("CCCAUGUCAGGAUAUUAAUUGGACGGGAAAUCCCGCCCACUUGAGAAGGGACAUGAGGAUCACCCAUGUAAAAC [Esatedbe] (Eterna round: R97, puzzle: Exclusion 4)")
2

Now, please, on to the next sequence.
Lab log: ACAACCGGAGGAUAUACGUAUUCAUCACUCAACGCGGAACGACAUGAGGAUCACCCAUGUAGAAGGCCGAGAGU [EX2 B.24] (Eterna round: R97, puzzle: Exclusion 2) — assign apparent KD of MS2 coat protein category
1

* * *

# Tested on: MS2 coat protein
# protocol-notes: apparent KD of MS2 coat protein; higher = weaker reporter binding
# conditions-used: Eterna round: R107; input ligand: theophylline 20 uM
measurement-type: apparent KD of MS2 coat protein (nM)
Numbers only, in nM.

Some solved cases for reference:
>>> observed_measurement("UCUAACAUGAGGAUCACCCAUGUACCGUCCCGAGGACCGGUACGGCCGCCACUCGUCUUGCUAAAACUGAAGUGAUCACAAGCCU [theeternabot_sameState_MS2_Trp_A_2]")
30.9
>>> observed_measurement("AUACAUGAGGAUCACCCAUGUUACACUGAAGGAGCGACAUGUUUGUCAGGUAGGUCGCAGUGAAGUUUAAUAAAUAGUUGAUCUU [#07 Same State - Arginine A]")
56.8
>>> observed_measurement("AAGAGUUGACAAAAGUCAGCUCAAACCGAAGGAGCGGGAGAAAUCCCAGGUAGGUCGCGGUUACAUGAGGAUCACCCAUGUUCCU [ArgAS 6 #BothOrNeither #OpenEnded]")
376

Hey, can you go through the list below and give me apparent KD of MS2 coat protein for every item?
1. ACCUGUACGAAAAGUGCAGGACAUGGUAAACGAGGACCGGUACGGCCGCCACUCGAAUAACAAGUGGAUCACCCUUGUAACCAUG [TrypAS 5 #AlternativeMS2 #Zipper #StaticStem]
2. UACAUGAGGAUCACCCAUGUAAGGUGAGAUACCAGUGAUAUGCUACACCCUUGGCAGCUCACGGCUGACUAUCAGCACACAUGUA [Theo A SS t1]

1: 573; 2: 34.4

* * *

# Tested on: MS2 coat protein
# protocol-notes: apparent KD of MS2 coat protein; designed switch direction (-1 OFF switch, 1 ON switch): -1; higher = weaker reporter binding
# conditions-used: input ligand: none
measurement-type: apparent KD of MS2 coat protein (nM)
One number for each entry, in nM.

>>> observed_measurement("CGACUAAACGUGAGGAUAUGCGGUGCCAGAACAUUGCAGAAGGCACAUGAGGAUCACCCAUGUGUGGGAGAAGA [Eternabot (L1) Solution 43] (Eterna round: R97, puzzle: Brourd's mod of Exclusion 4)")
103

Hey, can you go through the list below and give me apparent KD of MS2 coat protein for every item?
1. UUUGUACAUGAGGAUCACCCAUGUCAGGAUAUGUCAUCGCCGUUUCCCAGCCGGCGUCACAGAAGGGACAUGCA [EX1 C.5] (Eterna round: R97, puzzle: Exclusion 1)
2. CUAUGUGCGAGAGGAUAUCGUGUACAAAGUACACGAGAAGGCUUCACAUGAGGAUCACCCAUGUACCGAGGUGAAACACCUUGA [Omei Exc(NG)1 Bv6] (Eterna round: R96, puzzle: Exclusion NG 1)

1: 26.2; 2: 510
